tested on: ATP; assay: switch fluorescence ratio, 500 uM ATP over buffer (Cy3 cluster intensity, sum of 5 cycles each) (fold (ratio)); higher = stronger signal-on switching upon ATP binding; sequences stand for … in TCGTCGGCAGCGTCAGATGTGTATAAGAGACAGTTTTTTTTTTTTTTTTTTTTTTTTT…TC; settings: aptamer strand: ATP DNA aptamer (quencher-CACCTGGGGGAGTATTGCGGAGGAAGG + anchor), 100 nM annealed; ATP concentration: 500 uM;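 further: ATP exposure 15 min at 22 °C before imaging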
Lab note: anything with switch fluorescence ratio at or over 1 counts as Yes; the rest go in No.

AGGTTGTATG | No
GATCAGAGGA | Yes
CCGGTTTCGT | Yes

Exercise: # check: switch fluorescence ratio of GGCGACGGAG is greater than or equal to 1
Key: No

Exercise: # check: switch fluorescence ratio of ATTGCAGTTG is greater than or equal to 1
Key: No

Exercise: # check: switch fluorescence ratio of CGAATGGCGT is greater than or equal to 1
Key: Yes

Exercise: # check: switch fluorescence ratio of TCCTATATAA is greater than or equal to 1
Key: Yes
